- ASSAY SUMMARY: qHTS Assay for Spectroscopic Profiling in A350 Spectral Region
- COND: Compound autofluorescence, 340/450 nm, Alexa 350 dye-equivalents
Hit rate of the full screen: of about 59,000 compounds, about 6,500 (11%) were called active. Another 15% or so got no clear call; they are omitted. Many of the other results were omitted from the sample, so actives are more common in it than they were.
READOUT NAME: max dye-equivalent concentration

1) Cc1noc(C)c1-c1cc(NCc2cccnc2)ncn1	inactive
2) COc1ccc(C(=O)NC(=O)CSc2nnc(-c3ccco3)n2-c2ccccc2)cc1	inactive
3) Cn1c(COc2ccc(Cl)cc2)nc2ccccc2c1=O	inactive
